Test system: Yellow Fever Mosquito (Aedes aegypti, AEDSAE)
Type: in vivo
TEST_CONTEXT: Table ABC: Biological Results; species YFM
TEST_READOUT: YFM

compound=O=C(Nc1ccc(F)c(NS(=O)(=O)c2ccccc2)c1F)c1cc(NC(=O)[C@H]2[C@H](c3ccc(F)c(C(F)(F)F)c3)C2(Cl)Cl)ccc1Cl obs_value="A (80–100)"
compound="CN(C(=O)c1cc(NC(=O)[C@H]2[C@H](c3cc(Cl)cc(Cl)c3)C2(Cl)Cl)ccc1C#N)c1ccc(F)cc1F (relative stereo)" obs_value="A (80–100)"
compound="COc1ccc(CNc2ccc(NC(=O)c3cc(NC(=O)[C@H]4[C@H](c5cc(Cl)cc(Cl)c5)C4(Cl)Cl)ccc3Cl)c(C)c2)cc1 (relative stereo)" obs_value="A (80–100)"
compound="CCOC(C)C(=O)Nc1c(F)ccc(NC(=O)c2cc(NC(=O)[C@H]3[C@H](c4ccc(F)c(C(F)(F)F)c4)C3(Cl)Cl)ccc2Cl)c1F (stereo partly drawn)" obs_value="A (80–100)"
compound="O=C(Nc1ccc(F)cc1F)c1cc(NC(=O)[C@H]2[C@H](c3cc(F)c(Cl)c(Cl)c3)C2(Cl)Cl)ccc1Cl (relative stereo)" obs_value="A (80–100)"
compound=CN(C(=O)C(F)F)c1c(F)ccc(NC(=O)c2cc(NC(=O)[C@H]3[C@H](c4ccc(Cl)c(Cl)c4)C3(Cl)Cl)ccc2Cl)c1F obs_value="A (80–100)"
compound=CCOCC(=O)Nc1c(F)ccc(NC(=O)c2cc(NC(=O)[C@H]3[C@H](c4ccc(F)c(C(F)(F)F)c4)C3(Cl)Cl)ccc2Cl)c1F obs_value="A (80–100)"
compound="Cc1cc(NC(=O)[C@H]2[C@H](c3ccc(F)c(Cl)c3)C2(Cl)Cl)cc(C(=O)Nc2ccc(F)cc2F)c1Cl (relative stereo)" obs_value="A (80–100)"
compound=CCCCC(=O)Nc1c(F)ccc(NC(=O)c2cc(NC(=O)[C@H]3[C@H](c4ccc(F)c(C(F)(F)F)c4)C3(Cl)Cl)ccc2Cl)c1F obs_value="A (80–100)"
compound="O=C(Nc1ccc(F)cc1F)c1cc(NC(=O)[C@H]2[C@H](c3cc(Cl)c(F)c(Cl)c3)C2(Cl)Cl)ccc1Cl (relative stereo)" obs_value="A (80–100)"
compound="CNc1c(F)ccc(N(C)C(=O)c2cc(NC(=O)[C@H]3[C@H](c4ccc(Cl)c(Cl)c4)C3(Cl)Cl)ccc2Cl)c1F (relative stereo)" obs_value="A (80–100)"
compound=O=C(Nc1c(F)ccc(NC(=O)C(F)F)c1F)c1cc(NC(=O)[C@H]2[C@H](c3cc(Cl)c(Cl)c(Cl)c3)C2(Cl)Cl)ccc1Cl obs_value="A (80–100)"
compound=O=C(Nc1c(F)ccc(NC(=O)c2cc(NC(=O)[C@H]3[C@H](c4ccc(Cl)c(Cl)c4)C3(Cl)Cl)ccc2Cl)c1F)c1ccccc1 obs_value="A (80–100)"
compound="Cc1cc(NC(=O)C(F)(F)F)ccc1NC(=O)c1cc(NC(=O)[C@H]2[C@H](c3ccc(Cl)c(Cl)c3)C2(Cl)Cl)ccc1Cl (relative stereo)" obs_value="A (80–100)"
compound="O=C(Nc1cc(Cl)c(NC(=O)C(F)(F)F)c(Cl)c1)c1cc(NC(=O)[C@H]2[C@H](c3ccc(F)c(Cl)c3)C2(Cl)Cl)ccc1Cl (relative stereo)" obs_value="A (80–100)"
compound="Cc1cc(Br)ccc1NC(=O)c1cc(NC(=O)[C@H]2[C@H](c3cc(Cl)cc(Cl)c3)C2(Cl)Cl)ccc1Cl (relative stereo)" obs_value="A (80–100)"
compound=O=C(Nc1ccc(F)c(NC(=O)C2CC2)c1F)c1cc(NC(=O)[C@H]2[C@H](c3ccc(F)c(C(F)(F)F)c3)C2(Cl)Cl)ccc1Cl obs_value="A (80–100)"
compound="Nc1ccc(NC(=O)c2cc(NC(=O)[C@H]3[C@H](c4ccc(F)c(Cl)c4)C3(Cl)Cl)ccc2Cl)cc1C(F)(F)F (relative stereo)" obs_value="A (80–100)"
compound="Cc1c(Cl)cc(NC(=O)[C@H]2[C@H](c3ccc(F)c(Cl)c3)C2(Cl)Cl)cc1C(=O)Nc1ccc(F)cc1 (relative stereo)" obs_value="A (80–100)"
compound="C=C(F)c1cc(NC(=O)c2cc(NC(=O)[C@H]3[C@H](c4cc(Cl)cc(Cl)c4)C3(Cl)Cl)ccc2Cl)ccc1F (relative stereo)" obs_value="A (80–100)"
compound="O=C(Nc1ccc(F)cc1F)c1cc(NC(=O)[C@H]2[C@H](c3ccc(F)c(Cl)c3)C2(Cl)Cl)cc(F)c1Cl (relative stereo)" obs_value="A (80–100)"
compound="O=C(Nc1ccc(F)cc1F)c1cc(NC(=O)[C@H]2[C@H](c3cccc(I)c3)C2(Cl)Cl)ccc1Cl (relative stereo)" obs_value="A (80–100)"
compound=CCC(F)(F)C(=O)Nc1c(F)ccc(NC(=O)c2cc(NC(=O)[C@H]3[C@H](c4ccc(F)c(C(F)(F)F)c4)C3(Cl)Cl)ccc2Cl)c1F obs_value="A (80–100)"
compound="CC(=O)Nc1ccc(NC(=O)c2cc(NC(=O)[C@H]3[C@H](c4ccc(F)c(Cl)c4)C3(Cl)Cl)cc(C(F)(F)F)c2Cl)cc1 (relative stereo)" obs_value="A (80–100)"

src = patent US20250228239A1
